Target: PI3K-α (PIK3CA) H1047R mutant, p110α/p85α complex (Homo sapiens, UniProt P42336, H1047R)
Construct: Recombinant, catalytically active human full length PIK3KA Wild-type and H1047R mutant; 6×His (N); purchased EMD Millipore Sigma 14-792M
Sequence (P42336 whole entry H1047R): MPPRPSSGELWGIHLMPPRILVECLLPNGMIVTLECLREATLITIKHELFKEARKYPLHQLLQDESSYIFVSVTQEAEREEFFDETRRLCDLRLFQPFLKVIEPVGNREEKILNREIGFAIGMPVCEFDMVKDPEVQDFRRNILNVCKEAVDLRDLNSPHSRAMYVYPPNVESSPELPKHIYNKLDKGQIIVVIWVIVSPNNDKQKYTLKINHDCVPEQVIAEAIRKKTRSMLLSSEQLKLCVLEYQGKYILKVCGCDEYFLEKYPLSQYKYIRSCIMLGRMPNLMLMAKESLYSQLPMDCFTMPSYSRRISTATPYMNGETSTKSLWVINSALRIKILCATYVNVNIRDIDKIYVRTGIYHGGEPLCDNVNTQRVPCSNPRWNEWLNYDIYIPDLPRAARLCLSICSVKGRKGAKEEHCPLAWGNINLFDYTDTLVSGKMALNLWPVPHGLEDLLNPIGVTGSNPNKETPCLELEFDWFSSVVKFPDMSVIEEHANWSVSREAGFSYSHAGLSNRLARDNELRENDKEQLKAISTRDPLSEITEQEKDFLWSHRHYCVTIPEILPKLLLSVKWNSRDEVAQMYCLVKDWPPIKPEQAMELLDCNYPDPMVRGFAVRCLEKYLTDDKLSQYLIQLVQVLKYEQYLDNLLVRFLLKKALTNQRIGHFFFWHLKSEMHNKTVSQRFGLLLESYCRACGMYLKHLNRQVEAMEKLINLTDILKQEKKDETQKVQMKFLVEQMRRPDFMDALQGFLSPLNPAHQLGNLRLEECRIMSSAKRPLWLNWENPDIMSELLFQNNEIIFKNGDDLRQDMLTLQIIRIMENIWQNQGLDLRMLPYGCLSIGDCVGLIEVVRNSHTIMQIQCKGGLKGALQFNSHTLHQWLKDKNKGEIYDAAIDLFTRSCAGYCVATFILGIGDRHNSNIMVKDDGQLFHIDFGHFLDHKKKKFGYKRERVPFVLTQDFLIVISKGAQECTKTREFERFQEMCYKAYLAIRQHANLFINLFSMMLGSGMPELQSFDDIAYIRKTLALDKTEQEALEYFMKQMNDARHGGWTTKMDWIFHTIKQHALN
Sequence (P27986 whole entry partner): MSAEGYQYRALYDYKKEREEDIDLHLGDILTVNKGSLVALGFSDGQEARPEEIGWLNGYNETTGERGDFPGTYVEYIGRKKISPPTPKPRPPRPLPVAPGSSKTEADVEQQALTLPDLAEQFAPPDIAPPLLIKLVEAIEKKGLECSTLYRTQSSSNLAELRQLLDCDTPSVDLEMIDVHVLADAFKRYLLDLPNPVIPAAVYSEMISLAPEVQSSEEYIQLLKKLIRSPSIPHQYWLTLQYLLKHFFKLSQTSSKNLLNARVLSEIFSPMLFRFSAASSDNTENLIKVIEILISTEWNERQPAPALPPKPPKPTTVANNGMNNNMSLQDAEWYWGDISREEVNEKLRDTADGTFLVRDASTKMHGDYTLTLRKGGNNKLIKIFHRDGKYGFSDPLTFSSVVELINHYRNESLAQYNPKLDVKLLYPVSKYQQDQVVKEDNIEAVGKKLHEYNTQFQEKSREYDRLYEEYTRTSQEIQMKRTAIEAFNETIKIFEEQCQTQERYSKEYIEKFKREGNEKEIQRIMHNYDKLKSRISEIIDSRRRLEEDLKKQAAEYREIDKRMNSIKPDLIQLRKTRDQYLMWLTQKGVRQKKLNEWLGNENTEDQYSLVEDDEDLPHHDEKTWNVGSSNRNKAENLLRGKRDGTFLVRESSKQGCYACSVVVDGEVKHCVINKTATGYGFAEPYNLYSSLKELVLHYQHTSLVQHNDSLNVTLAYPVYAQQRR
Test: PI3K-alpha kinase (PIK3CA) biochemical activity, ADP-Glo, H1047R mutant
Details: Soy PI lipid substrate

{"Compound": "Cc1cc([C@@H](C)Nc2ccccc2C(=O)O)c2oc(-c3cc4cnccc4o3)c(C(F)(F)F)c(=O)c2c1", "IC50": "< 500 nM"}
{"Compound": "Cc1cc([C@@H](C)Nc2ccc(Cl)nc2C(=O)O)c2oc(-c3cc4cccnc4[nH]3)c(C)c(=O)c2c1", "IC50": "< 500 nM"}
{"Compound": "COc1ccc2cc(-c3cc(=O)c4cc(C)cc([C@@H](C)Nc5ccccc5C(=O)O)c4o3)ccc2n1", "IC50": "< 500 nM"}
{"Compound": "Cc1cc([C@@H](C)Nc2ccccc2C(=O)O)c2oc(-c3ccc4nc(C)oc4n3)c(C)c(=O)c2c1", "IC50": "< 500 nM"}
{"Compound": "Cc1cc(C(C)Nc2ccccc2C(=O)O)c2oc(-c3ccc4c(cnn4C)c3)c(C)c(=O)c2c1 (single isomer, unassigned)", "IC50": "< 500 nM"}
{"Compound": "Cc1cc(C(C)Nc2ccccc2C(=O)O)c2oc(-c3ccc4nncn4c3)cc(=O)c2c1 (single isomer, unassigned)", "IC50": "< 500 nM"}
{"Compound": "Cc1cc(C(C)Nc2ccccc2C(=O)O)c2oc(-c3cnn4ccccc34)cc(=O)c2c1 (stereo not shown) [Example 10]", "IC50": "< 500 nM"}
{"Compound": "Cc1cc(-c2cc(=O)c3cc(C(F)(F)F)cc(C(C)Nc4ccc(Cl)nc4C(=O)O)c3o2)cc2cn(C)nc12 (single isomer, unassigned) [Example 191]", "IC50": "< 500 nM"}
{"Compound": "Cc1cc(C(C)Nc2ccccc2C(=O)O)c2oc(-c3ccc4c(c3)c(C)nn4C)cc(=O)c2c1 (single isomer, unassigned) [Example 165]", "IC50": "< 500 nM"}
{"Compound": "Cc1cc(C(C)Nc2ccccc2C(=O)O)c2oc(-c3ccn4ccnc4c3)cc(=O)c2c1 (single isomer, unassigned)", "IC50": "< 500 nM"}
{"Compound": "Cc1cc(C(C)Nc2ccccc2C(=O)O)c2oc(-c3cc4ccccc4[nH]3)c(C)c(=O)c2c1 (single isomer, unassigned)", "IC50": "< 500 nM"}
{"Compound": "Cc1cc([C@@H](C)Nc2cccnc2C(=O)O)c2oc(-c3ccc4nc(C)sc4n3)c(C)c(=O)c2c1", "IC50": "1000 to 5000 nM"}
{"Compound": "Cc1cc(C(C)Nc2ccccc2C(=O)O)c2oc(-c3ccc4cc[nH]c4c3)c(C)c(=O)c2c1 (single isomer, unassigned)", "IC50": "< 500 nM"}

Cited source: patent US11878970B2
